property label: melting point (°C)

CCC(Nc1nc(NC(C)=O)nc(C(F)(F)F)n1)c1ccc(Cl)cc1 (centres unmarked); 116
CC(=O)Nc1nc(NC(C)c2ccc(Cl)cc2)nc(C(C)(Cl)Cl)n1 (centres unmarked); 118
COCc1nc(N)nc(NC(C)c2ccc(Cl)cc2)n1 (centres unmarked); 149
COCc1nc(NC(C)=O)nc(NC(C)c2ccc(Cl)cc2)n1 (centres unmarked); 155

---

- System: Viola
- assay remarks: Post-emergence test
- Format: in vivo
- condition label: 504 h, greenhouse, 250 g of ai./ha, scored after three weeks, read-out: % damage, Viola
- Procedure: Post-emergence Test Solvent: 5 parts by weight of acetone Emulsifier: 1 part by weight of alkylaryl polyglycol ether To produce a suitable preparation of active compound, 1 part by weight of active compound is mixed with the stated amount of solvent, the stated amount of emulsifier is added and the concentrate is diluted with water to the desired concentration. […] After three weeks, the degree of damage to the plants is scored visually in % damage in comparison to the untreated control. […]
property label: pest or weed control at 250 g/ha (%)
Could you give me the number in %? Just the number is fine.

Some compounds with recorded pest or weed control at 250 g/ha:
CC(Nc1nc(N)nc(C(C)(Cl)Cl)n1)c1ccc(Cl)cc1 (stereo not shown) [drawing 121]; 100
CC(Nc1nc(N)nc(C(Cl)Cl)n1)c1ccc(Cl)cc1 (stereo not shown) [drawing 119]; 100
CCc1nc(N)nc(NC(C)c2ccc(Cl)cc2)n1 (stereo not shown) [drawing 116]; 100

Report pest or weed control at 250 g/ha for CC(Nc1nc(N)nc(C(F)(F)C(F)(F)F)n1)c1ccc(Cl)cc1 (stereo not shown) please.
100

Proceed to CCC(Nc1nc(N)nc(C(F)(F)F)n1)c1ccc(Cl)cc1 (stereo not shown) [drawing 137]
100

Proceed to COCc1nc(N)nc(NC(C)c2ccc(Cl)cc2)n1 (stereo not shown) [drawing 118]
100

Proceed to CC(Nc1nc(N)nc(C(F)C(F)(F)F)n1)c1ccc(Cl)cc1 (stereo not shown) [drawing 117]
100

Proceed to CC(=O)Nc1nc(NC(C)c2ccc(Cl)cc2)nc(C(C)Cl)n1 (stereo not shown) [drawing 122]
95

Proceed to COc1ccc(C(C)Nc2nc(N)nc(C(C)F)n2)cc1 (stereo not shown) [drawing 136]
95

Proceed to CC(Cl)c1nc(N)nc(NC(C)c2ccc(Cl)cc2)n1 (stereo not shown) [drawing 120]
100

---

- System: Alopecurus
- assay remarks: Post-emergence test
- Assay type: in vivo
- condition label: greenhouse, 1000 g of ai./ha, scored after three weeks
A collection of compounds and their measured % damage, Alopecurus
Could you give me the number in %? Just the number is fine.

Some compounds with recorded % damage, Alopecurus:
CC(Nc1nc(N)nc(Cl)n1)c1ccc(Cl)cc1 (stereo not drawn) [drawing 108]; 70
CC(Nc1nc(N)nc(C(F)(F)F)n1)c1ccc(Cl)cc1 (stereo not drawn) [drawing 109]; 100
CC(Nc1nc(N)nc(Cl)n1)c1ccc(Cl)cc1 (stereo not drawn) [drawing 107]; 100
COc1ccc(C(C)Nc2nc(NC(C)=O)nc(C(F)(F)F)n2)cc1 (stereo not drawn) [drawing 149]; 100
CC(Nc1nc(N)nc(C(C)(C)F)n1)c1ccc(Cl)cc1 (stereo not drawn) [drawing 110]; 90

Report % damage, Alopecurus for CC(Nc1nc(N)nc(Cl)n1)c1ccc(Cl)cc1 (stereo not drawn) [drawing 106] please.
80

---

A collection of compounds and their measured % damage, Echinochloa
- Tested on: Echinochloa
- assay remarks: Pre-emergence test
- Format: in vivo
- condition label: greenhouse, 500 g of ai./ha, scored after three weeks
Could you give me the number in %? Just the number is fine.

Some compounds with recorded % damage, Echinochloa:
CC(F)c1nc(N)nc(NC(C)c2ccc(Cl)cc2)n1 (stereo not shown) [drawing 93]; 100
CC(Nc1nc(N)nc(C(Cl)Cl)n1)c1ccc(Cl)cc1 (stereo not shown) [drawing 98]; 100
CC(Cl)c1nc(N)nc(NC(C)c2ccc(Cl)cc2)n1 (stereo not shown) [drawing 100]; 100

Then this compound:
Report % damage, Echinochloa for CC(=O)Nc1nc(NC(C)c2ccc(Cl)cc2)nc(C(F)C(F)(F)F)n1 (stereo not shown) [drawing 97] please.
95

---

property label: melting point (°C)

Some compounds with recorded melting point:
CSc1ccc(C(C)Nc2nc(NC(C)=O)nc(C(F)(F)F)n2)cc1 (racemic); 132
CSc1ccc(C(C)Nc2nc(N)nc(C(C)(Cl)Cl)n2)cc1 (stereo not drawn); 133
COc1ccc(C(C)Nc2nc(NC(C)=O)nc(C(F)(F)F)n2)cc1 (stereo not drawn) [Example 84]; 108
CC(Nc1nc(N)nc(C(Cl)Cl)n1)c1ccc(Cl)cc1 (stereo not drawn) [Example 149]; 152
CC(=O)Nc1nc(NC(C)c2ccc(Cl)cc2)nc(C(C)Cl)n1 (stereo not drawn) [Example 146]; 126

A. CC(=O)Nc1nc(NC(C)c2ccc(Cl)cc2)nc(C(C)Cl)n1 (stereo not drawn) [Example 177]
B. CCc1nc(NC(C)=O)nc(NC(C)c2ccc(Cl)cc2)n1 (stereo not drawn)
Look at A and B . Which one has the lower recorded melting point number? Your choice should be expressed through its label.
A

---

- Test system: Polygonum
- assay remarks: Post-emergence test
- Assay type: in vivo
- condition label: greenhouse, 250 g of ai./ha, scored after three weeks
property label: % damage, Polygonum (%)
Could you give me the number in %? Just the number is fine.

Report % damage, Polygonum for COCc1nc(N)nc(NC(C)c2ccc(Cl)cc2)n1 (centres unmarked) [drawing 130] please.
100

Proceed to CC(Nc1nc(N)nc(C(F)C(F)(F)F)n1)c1ccc(Cl)cc1 (centres unmarked) [drawing 124]
95

---

- System: Abutilon
- assay remarks: Post-emergence test
- Format: in vivo
- condition label: greenhouse, 1000 g of ai./ha, scored after three weeks
property label: % damage, Abutilon (%)
Could you give me the number in %? Just the number is fine.

Some compounds with recorded % damage, Abutilon:
COc1ccc(C(C)Nc2nc(NC(C)=O)nc(C(F)(F)F)n2)cc1 (centres unmarked) [drawing 149]; 100
CC(Nc1nc(N)nc(C(F)(F)F)n1)c1ccc(Cl)cc1 (centres unmarked) [drawing 109]; 100

Report % damage, Abutilon for CC(Nc1nc(N)nc(Cl)n1)c1ccc(Cl)cc1 (centres unmarked) [drawing 107] please.
100

Proceed to CC(Nc1nc(N)nc(C(F)(F)F)n1)c1ccc(Cl)cc1 (centres unmarked) [drawing 111]
100

Proceed to CC(Nc1nc(N)nc(Cl)n1)c1ccc(Cl)cc1 (centres unmarked) [drawing 108]
100

Proceed to CC(Nc1nc(N)nc(C(C)(C)F)n1)c1ccc(Cl)cc1 (centres unmarked) [drawing 110]
100

Proceed to CCC(Nc1nc(NC(C)=O)nc(C(F)(F)F)n1)c1ccc(Cl)cc1 (centres unmarked) [drawing 144]
100

Proceed to CC(Nc1nc(N)nc(C(C)(C)F)n1)c1ccc(Cl)cc1 (centres unmarked) [drawing 112]
100

---

- Tested on: Wheat
- assay remarks: Post-emergence test
- Type: in vivo
- condition label: Triticum aestivum, 504 h, greenhouse, 500 g of ai./ha, scored after three weeks, read-out: % damage, Wheat
- Method: Post-emergence Test Solvent: 5 parts by weight of acetone Emulsifier: 1 part by weight of alkylaryl polyglycol ether To produce a suitable preparation of active compound, 1 part by weight of active compound is mixed with the stated amount of solvent, the stated amount of emulsifier is added and the concentrate is diluted with water to the desired concentration. […] After three weeks, the degree of damage to the plants is scored visually in % damage in comparison to the untreated control. […]
A collection of compounds and their measured plant injury at 500 g/ha
Could you give me the number in %? Just the number is fine.

COc1ccc(C(C)Nc2nc(N)nc(C(F)(F)F)n2)cc1 (stereo not shown) [drawing 138]; 0

Then this compound:
Report plant injury at 500 g/ha for CC(Nc1nc(N)nc(C(C)(Cl)Cl)n1)c1ccc(Cl)cc1 (stereo not shown) [drawing 126] please.
10

---

property label: melting point (°C)

CSc1ccc(C(C)Nc2nc(N)nc(C(Cl)Cl)n2)cc1 (centres unmarked) [Example 108]; 125
CC(=O)Nc1nc(NC(C)c2ccc(Cl)cc2)nc(C(Cl)Cl)n1 (centres unmarked) [Example 175]; 131
CC(Nc1nc(N)nc(C(Cl)Cl)n1)c1ccc(Cl)cc1 (centres unmarked) [Example 168]; 133
COCc1nc(NC(C)=O)nc(NC(C)c2ccc(SC)cc2)n1 (centres unmarked) [Example 103]; 141
CCC(Nc1nc(N)nc(C(F)(F)F)n1)c1ccc(Cl)cc1 (centres unmarked) [Example 85]; 145
CSc1ccc(C(C)Nc2nc(N)nc(C(F)(F)F)n2)cc1 (racemic) [Example 1]; 111
COc1ccc(C(C)Nc2nc(NC(C)=O)nc(C(F)(F)F)n2)cc1 (centres unmarked) [Example 82]; 130
CC(=O)Nc1nc(NC(C)c2ccc(Cl)cc2)nc(C(Cl)Cl)n1 (centres unmarked) [Example 145]; 132
